assayText: plasma level in mice after IV, PO or IP administration (LC/MS)
Type: in vivo, Balb/c mice
assayContext: Balb/c, mouse, plasma, iv, 10 mg/kg, IV2 10 mg/kg
readoutType: AUC(0-t) (ng·h/mL)
Answer with a number only, understood to be in ng·h/mL.

// query AUC(0-t) value for entry CCCC(NC(=O)/C(C#N)=C/c1nc(Cl)ccc1Cl)c1ccc(OCCN2CCOCC2)cc1 (stereo not shown)
3570

---

assayText: plasma level in mice after IV, PO or IP administration (LC/MS)
Assay type: in vivo, Balb/c mice
assayContext: Balb/c, mouse, plasma, oral, 30 mg/kg, PO1 30 mg/kg, 0.5 hours
readoutType: concentration at 0.5 h (µg/mL)
Note: unit µg/mL is implicit; provide only the numeric part.

Report concentration at 0.5 h for CCCC(NC(=O)/C(C#N)=C/c1nc(Cl)ccc1Cl)c1ccc(OCCN2CCOCC2)cc1 (stereo not shown) please.
0.0608
